# Test system: human B2M
# measurement protocol: CRISPR/Cas9-mediated deletion of B2M in HEK293 (lipofection, FACS)
# Type: cell-based
# conditions: lipofection of tracrRNA, gRNA and Cas9 mRNA; FACS after 72 h
Below is a list of entries, each paired with its recorded B2M knockout efficiency in HEK293 value.
endpoint: B2M knockout efficiency in HEK293

molecule	endpoint result
2-CR004366: gRNA targeting human B2M; targeting domain SEQ ID NO: 109; sgRNA SEQ ID NO: 160; from Dharmacon (nucleic acid, listed as RNA, chemistry not given here, gRNA targeting human B2M; from Dharmacon) guide: CGUGAGUAAACCUGAAUCUUGUUUUAGAGCUAGAAAUAGCAAGUUAAAAUAAGGCUAGUCCGUUAUCAACUUGAAAAAGUGGCACCGAGUCGGUGCUUUU	33%
9-HEYJA000005: gRNA targeting human B2M; targeting domain SEQ ID NO: 116; sgRNA SEQ ID NO: 167 (nucleic acid, listed as RNA, chemistry not given here) guide: UCACGUCAUCCAGCAGAGAAGUUUUAGAGCUAGAAAUAGCAAGUUAAAAUAAGGCUAGUCCGUUAUCAACUUGAAAAAGUGGCACCGAGUCGGUGCUUUU	39%
3-CR004366: gRNA targeting human B2M; targeting domain SEQ ID NO: 110; sgRNA SEQ ID NO: 161; from Dharmacon (nucleic acid, listed as RNA, chemistry not given here, gRNA targeting human B2M; from Dharmacon) guide: AAGUCAACUUCAAUGUCGGAGUUUUAGAGCUAGAAAUAGCAAGUUAAAAUAAGGCUAGUCCGUUAUCAACUUGAAAAAGUGGCACCGAGUCGGUGCUUUU	12%
4-CR004366: gRNA targeting human B2M; targeting domain SEQ ID NO: 111; sgRNA SEQ ID NO: 162; from Dharmacon (nucleic acid, listed as RNA, chemistry not given here, gRNA targeting human B2M; from Dharmacon) guide: CAGUAAGUCAACUUCAAUGUGUUUUAGAGCUAGAAAUAGCAAGUUAAAAUAAGGCUAGUCCGUUAUCAACUUGAAAAAGUGGCACCGAGUCGGUGCUUUU	48%
8-HEYJA000004: gRNA targeting human B2M; targeting domain SEQ ID NO: 115; sgRNA SEQ ID NO: 166 (nucleic acid, listed as RNA, chemistry not given here) guide: ACUCACGCUGGAUAGCCUCCGUUUUAGAGCUAGAAAUAGCAAGUUAAAAUAAGGCUAGUCCGUUAUCAACUUGAAAAAGUGGCACCGAGUCGGUGCUUUU	65%
